System: Vero E6 infected with SARS-CoV-2
Assay: inhibition of SARS-CoV-2 cytopathic effect; higher = more antiviral protection, active = above 15
Details: 1 nM; 48 h
assay_endpoint: inhibition of SARS-CoV-2 cytopathic effect (%)
Entry rule: numbers only, all in %.

Here are 8 compounds together with their reported answers.
NS(=O)(=O)c1ccc2c(c1)C1C=CCC1C(c1ccc(Br)cc1)N2 (stereo not given)    -1.04
O=c1[nH]c2ccccc2c(=O)n1CCCN1CCN(c2ccccc2)CC1 [pelanserin]    0.03
O=C(Nc1cc(Cl)cc(Cl)c1O)c1c(O)c(Cl)cc(Cl)c1Cl [oxyclozanide]    -1.81
CC(C)C[C@@H](N)C1(c2ccc(Cl)cc2)CCC1    -0.06
NC1(Cc2ccc(Cl)cc2)CCN(c2ncnc3[nH]ccc23)CC1    -1.05
CN(C)CCOc1ccc(/C(=C(/CCCl)c2ccccc2)c2ccccc2)cc1 [toremifene]    1.37
CC(=O)Nc1ccc(S(=O)(=O)c2ccc(NC(C)=O)cc2)cc1 [acedapsone]    -1.54
CC(C)c1cnn2c(NCc3ccccc3)cc(NCCCCCCN)nc12    2.49

For reference, reported inhibition of SARS-CoV-2 cytopathic effect for Oc1c(Cl)cc(Cl)cc1Sc1cc(Cl)cc(Cl)c1O [bithionol] stands at 0.29

For reference, reported inhibition of SARS-CoV-2 cytopathic effect for Nc1ncnc2c1ncn2[C@@H]1O[C@@H]2COP(=O)(O)O[C@H]2[C@H]1O [cyclic-AMP] stands at 3.59
